Some molecules, each annotated with its measured PD-L1 MFI at 33.3 nM.
- system: huPD-L1 (Homo sapiens, UniProt Q9NZQ7)
- Sequence (Q9NZQ7 19-290): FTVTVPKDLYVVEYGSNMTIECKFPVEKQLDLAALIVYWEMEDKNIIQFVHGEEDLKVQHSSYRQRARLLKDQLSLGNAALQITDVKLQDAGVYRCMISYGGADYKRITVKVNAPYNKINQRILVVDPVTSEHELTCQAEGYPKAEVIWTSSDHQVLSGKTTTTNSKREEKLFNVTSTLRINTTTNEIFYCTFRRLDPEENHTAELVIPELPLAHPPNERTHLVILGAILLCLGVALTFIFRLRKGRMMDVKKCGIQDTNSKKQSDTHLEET
- assay-details: Flow binding to CHO cells stably expressing PD-L1
- Parameters: huCTLA4 and huPD-L1, full-length mammalian surface expression constructs were generated; expressed in transfected cells; host or cells: CHO cells, lentiviral transduction, sorted to >98% purity
- condition-info: Table E23; CD80 IgV-Fc (inert) at 33.3 nM; CHO cells stably expressing PD-L1

{"molecule": "H18L/E35D/M47V/V68M/A71G/D90G (protein, UniProt P33681 35-288, looked up, variant H18L E35D M47V V68M A71G D90G) T-lymphocyte activation …: VIHVTKEVKEVATLSCGLNVSVEELAQTRIYWQKDKKMVLTMMSGDVNIWPEYKNRTIFDITNNLSIMILGLRPSDEGTYECVVLKYEKGAFKREHLAEVTLSVKADFPTPSISDFEIPTSNIRRIICSTSGGFPEPHLSWLENGEELNAINTTVSQDPETELYAVSSKLDFNMTTNHSFMCLIKYGHLRVNQTFNWNTTKQEHFPDNLLPSWAITLISVNGIFVICCLTYCFAPRCRERRRNERLRRESVRPV", "PD-L1 MFI at 33.3 nM": 64761}
{"molecule": "H18V/A26N/E35D/M47V/V68M/A71G (protein, UniProt P33681 35-288, looked up, variant H18V A26N E35D M47V V68M A71G) T-lymphocyte activation …: VIHVTKEVKEVATLSCGVNVSVEELNQTRIYWQKDKKMVLTMMSGDVNIWPEYKNRTIFDITNNLSIMILGLRPSDEGTYECVVLKYEKDAFKREHLAEVTLSVKADFPTPSISDFEIPTSNIRRIICSTSGGFPEPHLSWLENGEELNAINTTVSQDPETELYAVSSKLDFNMTTNHSFMCLIKYGHLRVNQTFNWNTTKQEHFPDNLLPSWAITLISVNGIFVICCLTYCFAPRCRERRRNERLRRESVRPV", "PD-L1 MFI at 33.3 nM": 68165}
{"molecule": "H18V/A26G/E35D/M47V/V68M/A71G/D90G (protein, UniProt P33681 35-288, looked up, variant H18V A26G E35D M47V V68M A71G D90G) T-lymphocyte activation …: VIHVTKEVKEVATLSCGVNVSVEELGQTRIYWQKDKKMVLTMMSGDVNIWPEYKNRTIFDITNNLSIMILGLRPSDEGTYECVVLKYEKGAFKREHLAEVTLSVKADFPTPSISDFEIPTSNIRRIICSTSGGFPEPHLSWLENGEELNAINTTVSQDPETELYAVSSKLDFNMTTNHSFMCLIKYGHLRVNQTFNWNTTKQEHFPDNLLPSWAITLISVNGIFVICCLTYCFAPRCRERRRNERLRRESVRPV", "PD-L1 MFI at 33.3 nM": 66198}

Numbers sourced from patent US20220177587A1.
